Could you please report measured Kd for the items listed next?
- SYSTEM: dynein light chain LC8 (UniProt P63167 1-89)
- Sequence (P63167 whole entry): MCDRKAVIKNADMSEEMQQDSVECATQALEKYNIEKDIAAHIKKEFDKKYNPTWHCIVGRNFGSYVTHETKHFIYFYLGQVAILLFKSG
- PROCEDURE_TEXT: ITC; peptide (500 μM) injected into 25 μM LC8 in the cell; 25°C; 50 mM sodium phosphate, 50 mM NaCl, 1 mM sodium azide, 5 mM β-mercaptoethanol, pH 7.5; single-site model; averages of two to three experiments
- EXPERIMENTAL_CONTEXT: both partners purified

response.value for APMSCDKSTQTPSP [BCL2L11 peptide] (field: Kd) = 0.16 µM

Entry under test: SPSPTGLPTQTPGF [ARAP3 peptide] . Its Kd was > 25 µM

Input DDSGGNATTQTTSD [ROR1 peptide] . Output Kd: > 25 µM

Quick note, Kd for SKTQQTFGSQTECT [TOGARAM1 peptide] landed at > 25 µM

GET /value?item= GQGAALTTATQTTHLE [GP1BA peptide] &field=Kd returns > 25 µM

Reference source: paper PMC6607443
